# reported switch fluorescence ratio; entries follow
# System: ATP;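 further: ATP exposure 15 min at 22 °C before imaging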
# measurement.description: switch fluorescence ratio, 500 uM ATP over buffer (Cy3 cluster intensity, sum of 5 cycles each) (fold (ratio)); higher = stronger signal-on switching upon ATP binding; sequences stand for … in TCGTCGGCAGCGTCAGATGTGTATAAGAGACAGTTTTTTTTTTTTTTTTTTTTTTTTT…TC
# test.parameters: aptamer strand: ATP DNA aptamer (quencher-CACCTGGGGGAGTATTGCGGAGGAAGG + anchor), 100 nM annealed; ATP concentration: 500 uM
property.label: switch fluorescence ratio

| sequence | numeric.readout |
| --- | --- |
| GACAGTTAGC | 1.03 |
| GCGTAAGTTC | 0.981 |
| ATAGGTGGCG | 1.01 |
| CTTAGTGCTT | 0.973 |
| CCGAATATGA | 1.55 |
| GGGGGAAGAT | 1.01 |
| CGCGGGGCGC | 1.03 |
| TAGCATTTTT | 1.07 |
| CAAGTGTTGG | 1.01 |
| TTGGGGGATG | 0.985 |
